# System: Alternaria solani
# protocol: Alternaria test (tomato) / protective
# Assay type: in vivo
# condition parameters: 500 ppm active compound, protective spray, evaluated 7 days after inoculation
Can you tell me efficacy for the items I'm about to list?
Numeric answer only, unit % assumed.

Prompt: Requested read-out: efficacy. Entry: CC(C)(C)Cn1cc(-c2ccncc2)c(-c2ccc(F)s2)n1 [Example 345]
Completion: 94

Prompt: Another molecule to check: CCC(C)n1cc(-c2ccnc(NC(=O)N(C)C)c2)c(-c2ccc(Cl)s2)n1 (stereo not drawn) [Example 227]
Completion: 80

Prompt: Another molecule to check: CC(C)Cn1cc(-c2ccncc2)c(-c2cccs2)n1 [Example 407]
Completion: 90

Prompt: Another molecule to check: CCn1cc(-c2ccnc(NC(=O)C3CC3)c2)c(-c2ccc(Cl)s2)n1 [Example 264]
Completion: 90

Prompt: Another molecule to check: CCn1cc(-c2ccnc(NC(=O)Cc3ccccc3)c2)c(-c2ccc(Cl)s2)n1 [Example 262]
Completion: 80

Prompt: Another molecule to check: CCn1cc(-c2ccnc(NC(=O)[C@H](C)O)c2)c(-c2ccc(Cl)s2)n1 [Example 206]
Completion: 80

Prompt: Another molecule to check: CC(C)n1cc(-c2ccnc(NC(=O)C(C)(C)O)c2)c(-c2ccc(Cl)s2)n1 [Example 211]
Completion: 90

Prompt: Another molecule to check: CCC(C)C(=O)Nc1cc(-c2cn(CC)nc2-c2ccc(Cl)s2)ccn1 (stereo not drawn) [Example 252]
Completion: 95

Prompt: Another molecule to check: CCn1cc(-c2ccnc(NC(=O)C(C)(C)C)c2)c(-c2ccc(Cl)s2)n1 [Example 255]
Completion: 90

====

Can you tell me protection for the items I'm about to list?
# System: Pyrenophora teres
# protocol: In vivo test on Pyrenophora teres (barley net blotch)
# condition parameters: dose of 500 ppm; barley plants; grading 12 days after contamination
Numeric answer only, unit % assumed.

Prompt: Requested read-out: protection. Entry: Cn1cc(-c2ccnc(NC(=O)C3CC3)c2)c(-c2ccc(Cl)s2)n1
Completion: 95

Prompt: Another compound to check: CCn1cc(-c2ccnc(NC(=O)COC)c2)c(-c2ccc(Cl)s2)n1
Completion: 90

Prompt: Another compound to check: Cn1cc(-c2ccnc(NC(=O)c3ccccc3)c2)c(-c2ccc(Cl)s2)n1
Completion: 70

Prompt: Another compound to check: CC(=O)Nc1cc(-c2cnn(/C=C/F)c2-c2ccc(Cl)s2)ccn1
Completion: 95

Prompt: Another compound to check: CC(=O)Nc1nccc(-c2cn(C(C)C)nc2-c2ccc(Cl)s2)n1
Completion: 90

Prompt: Another compound to check: CCC(C)n1cc(-c2ccnc(NC(C)=O)c2)c(-c2ccc(Cl)s2)n1 (stereo not drawn)
Completion: 100

Prompt: Another compound to check: Cc1ccc(-c2nn(C(C)C)cc2-c2ccncc2)s1
Completion: 95

Prompt: Another compound to check: CCn1cc(-c2ccnc(NC(=O)Cc3ccccc3)c2)c(-c2ccc(Cl)s2)n1
Completion: 90

Prompt: Another compound to check: CCC(=O)Nc1cc(-c2c(-c3ccc(Cl)s3)nn(C)c2C)ccn1
Completion: 80

Prompt: Another compound to check: CCC(C)n1cc(-c2ccnc(NC(=O)CC(C)C)c2)c(-c2ccc(Cl)s2)n1 (stereo not drawn)
Completion: 95

Prompt: Another compound to check: CC(=O)N(C(C)=O)c1cc(-c2cn(C(C)C)nc2-c2ccc(Cl)s2)ccn1
Completion: 95

Prompt: Another compound to check: CC(=O)N(C(C)=O)c1cc(-c2cn(/C=C/F)nc2-c2ccc(Cl)s2)ccn1
Completion: 80

Prompt: Another compound to check: Cn1cc(-c2ccnc(NC(=O)CC3CC3)c2)c(-c2ccc(Cl)s2)n1
Completion: 90

Prompt: Another compound to check: N#CCCn1cc(-c2ccncc2)c(-c2ccc(Br)s2)n1
Completion: 90

Prompt: Another compound to check: CCC(=O)Nc1cc(-c2cn(C)nc2-c2ccc(Cl)s2)ccn1
Completion: 90

Prompt: Another compound to check: CCC(C)n1cc(-c2ccnc(NC(=O)COC)c2)c(-c2ccc(Cl)s2)n1 (stereo not drawn)
Completion: 95

Prompt: Another compound to check: Cn1cc(-c2ccnc(NC(=O)Cc3ccccc3)c2)c(-c2ccc(Cl)s2)n1
Completion: 90

Prompt: Another compound to check: Nc1cc(-c2cn(CCF)nc2-c2ccc(Cl)s2)ccn1
Completion: 70

====

Can you tell me log p for the items I'm about to list?
# condition parameters: pH 2.7
Marks after values point to notes of the source that are not given here.

Prompt: Requested read-out: log p. Entry: CCn1cc(-c2ccnc(NC(=O)C(C)(C)O)c2)c(-c2ccc(Cl)s2)n1 [Example 212]
Completion: 2.73^[b]

Prompt: Another compound to check: CC(C)(C)Cn1ncc(-c2ccncc2)c1-c1ccc(Cl)s1 [Example 25]
Completion: 2.17^[b]

Prompt: Another compound to check: CCC(C)n1cc(-c2ccnc(C#N)c2)c(-c2ccc(Cl)s2)n1 (centres unmarked) [Example 97]
Completion: 4.41^[b]

Prompt: Another compound to check: Nc1cc(-c2cn(CCF)nc2-c2ccc(Cl)s2)ccn1 [Example 296]
Completion: 1.46^[b]

Prompt: Another compound to check: CS(=O)(=O)n1cc(-c2ccncc2)c(-c2ccc(Cl)s2)n1 [Example 88]
Completion: 1.78^[b]

====

# System: Alternaria solani
# protocol: Alternaria test (tomato) / protective
# Assay type: in vivo
# condition parameters: 500 ppm active compound, protective spray, evaluated 7 days after inoculation
# Method: Alternaria Test (Tomato)/Protective Solvent: 49 parts by weight of N,N-dimethylformamide Emulsifier: 1 part by weight of alkylaryl polyglycol ether To produce a suitable preparation of active compound, 1 part by weight of active compound is mixed with the stated amounts of solvent and emulsifier, and the concentrate is diluted with water to the desired concentration. […]
Can you tell me efficacy for the items I'm about to list?
Numeric answer only, unit % assumed.

Prompt: Which measured efficacy belongs to CC(C)Cn1cc(-c2ccnc3ccccc23)c(-c2ccc(Cl)s2)n1 [Example 421] , tested on Alternaria solani?
Completion: 89

Prompt: Another molecule to check: CCC(C)n1cc(-c2ccnc(NC(=O)Cc3ccccc3)c2)c(-c2ccc(Cl)s2)n1 (stereo not shown) [Example 224]
Completion: 80

Prompt: Another molecule to check: CCC(CC)n1cc(-c2ccncc2)c(-c2ccc(Cl)s2)n1 [Example 64]
Completion: 80

Prompt: Another molecule to check: Brc1ccc(-c2n[nH]cc2-c2ccncc2)s1 [Example 408]
Completion: 70

Prompt: Another molecule to check: Cn1cc(-c2ccncc2)c(-c2ccc(Cl)s2)n1 [Example 46]
Completion: 95

Prompt: Another molecule to check: CCOCCn1cc(-c2ccncc2)c(-c2cc3ccsc3s2)n1 [Example 337]
Completion: 94

Prompt: Another molecule to check: CCCc1c(-c2ccncc2)c(-c2sccc2C)nn1C [Example 165]
Completion: 70

Prompt: Another molecule to check: CC(=O)Nc1cc(-c2cn(/C=C/F)nc2-c2ccc(Cl)s2)ccn1 [Example 293]
Completion: 80

Prompt: Another molecule to check: CCC(C)n1cc(-c2ccncc2)c(-c2ccc(F)s2)n1 (stereo not shown) [Example 106]
Completion: 100

Prompt: Another molecule to check: C=CC(C)n1cc(-c2ccncc2)c(-c2ccc(Br)s2)n1 (stereo not shown) [Example 389]
Completion: 94

====

# System: Fusarium graminearum
# Format: cell-based
# condition parameters: 50 μM; 7 days at 28° C.
measured attribute: % Inhibition of DON/AcDON at 50 μM (%)
Numeric answer only, unit % assumed.

Prompt: Requested read-out: % Inhibition of DON/AcDON at 50 μM. Entry: CCC(C)n1cc(-c2ccncc2)c(-c2cc3ccsc3s2)n1 (centres unmarked) [Example 328]
Completion: 98

Prompt: Another compound to check: CC(C)Cn1cc(-c2cc(N)ncn2)c(-c2ccc(Cl)s2)n1 [Example 423]
Completion: 99

Prompt: Another compound to check: CCn1cc(-c2ccnc(NC(=O)c3cccs3)c2)c(-c2ccc(Cl)s2)n1 [Example 267]
Completion: 89

Prompt: Another compound to check: CC(C)Cn1cc(-c2ccnc(NC(=O)C(C)C)c2)c(-c2ccc(Cl)s2)n1 [Example 397]
Completion: 97

Prompt: Another compound to check: CCC(=O)Nc1cc(-c2cn(C)nc2-c2ccc(Cl)s2)ccn1 [Example 278]
Completion: 98

====

# condition parameters: pH 2.7
Marks after values point to notes of the source that are not given here.
Can you tell me log p for the items I'm about to list?

Prompt: Requested read-out: log p. Entry: CCC(CC)n1cc(-c2ccncc2)c(-c2ccc(F)s2)n1
Completion: 2.04^[b]

Prompt: Another compound to check: C=CC(C)n1cc(-c2ccnc(NC(C)C)n2)c(-c2ccc(Cl)s2)n1 (stereo not drawn)
Completion: 3.02^[b]

Prompt: Another compound to check: CC(C)C(C)n1ncc(-c2ccncn2)c1-c1ccc(Cl)s1 (stereo not drawn)
Completion: 3.8^[b]

Prompt: Another compound to check: CC1(Cn2cc(-c3ccncc3)c(-c3ccc(Br)s3)n2)CC1(Cl)Cl (stereo not drawn)
Completion: 2.75^[b]

Prompt: Another compound to check: CC(C)(C)Cn1cc(-c2ccncc2)c(-c2cc3ccsc3s2)n1
Completion: 2.35^[b]

Prompt: Another compound to check: CCOC(=O)Nc1cc(-c2cn(CC)nc2-c2ccc(Cl)s2)ccn1
Completion: 3^[b]

Prompt: Another compound to check: Clc1ccc(Cn2cc(-c3ccncc3)c(-c3ccc(Br)s3)n2)s1
Completion: 2.69^[b]

Prompt: Another compound to check: C#CCn1cc(-c2ccnc(NC(C)C)n2)c(-c2ccc(Cl)s2)n1
Completion: 2.52^[b]

Prompt: Another compound to check: CCn1cc(-c2ccnc(NC(=O)c3ccsc3)c2)c(-c2ccc(Cl)s2)n1
Completion: 3.29^[b]
